Biological target: DLG2_2, Q15700
Sequence (Q15700 189-283): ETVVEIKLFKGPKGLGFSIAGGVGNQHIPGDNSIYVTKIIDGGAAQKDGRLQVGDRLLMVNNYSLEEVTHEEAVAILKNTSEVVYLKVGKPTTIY
Assay: holdup assay
Design: key: below the threshold = too weak to quantify, mostly under pKd 3.1 to 4
Details: plain residues with an end cap or a label only (N-terminal biotin on a linker: ado-ado)
Tick label 1 if pKd is 5 or greater. Tick label 0 if pKd is less than 5.

binder	label
AKPSRISTVV [IQSEC2, Q5JU85]	label 1
QHKTQLQTLI [BPIFA2, Q96DR5]	label 0
DDENIRTSDV [PLEKHA2, Q9HB19]	label 0
SGSLKLMTTV [DACT1, Q9NYF0]	label 1
LGRSTPQSEV [DGKH, Q86XP1]	label 0
NLSIEKETKL [ASNSD1, Q9NWL6]	label 0
QSARLWETSI [ADAM22, Q9P0K1]	label 0
VDSTVKVWTC [TRAF7, Q6Q0C0]	label 0
PKRSFIESNV [TANC1, Q9C0D5]	label 0
TACCHSETVV [TGFA, P01135]	label 0
LPHGHSTTRV [NLGN4X, Q8N0W4]	label 0
SAKVRTVTSV [RASL11B, Q9BPW5]	label 0
RRRESYSTTV [EVI5, O60447]	label 1
